Target: T1, cynomolgus Tyro3 ECD, His-Strep tagged
T1 construct: also called cyno TYRO3 ECD 8hisstrep
T1 extracellular domain: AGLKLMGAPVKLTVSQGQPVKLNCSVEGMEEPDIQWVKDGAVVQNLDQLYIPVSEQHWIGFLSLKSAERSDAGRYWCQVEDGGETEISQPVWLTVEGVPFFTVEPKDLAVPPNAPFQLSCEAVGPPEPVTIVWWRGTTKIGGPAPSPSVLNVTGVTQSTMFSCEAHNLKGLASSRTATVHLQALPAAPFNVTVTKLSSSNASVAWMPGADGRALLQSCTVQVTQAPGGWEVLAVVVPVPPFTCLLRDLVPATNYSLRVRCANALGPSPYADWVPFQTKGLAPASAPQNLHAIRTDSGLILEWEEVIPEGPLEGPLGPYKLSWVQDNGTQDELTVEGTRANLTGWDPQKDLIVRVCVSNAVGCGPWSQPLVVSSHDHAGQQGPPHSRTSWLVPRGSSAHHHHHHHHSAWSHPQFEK
Test: sandwich ELISA, Strep-tagged cynomolgus Tyro3 ECD captured on StrepMAB plate, scFv 3-fold from 10 µg/mL, anti-FLAG-HRP
Method: [The procedure below names another species; the source lists this species under the same test.] A double sandwich ELISA was developed. This assay consisted in measuring the binding of the anti-Tyro3 antibodies to be tested on immobilized strep-tagged entire human Tyro3 ECD captured directly on ELISA plate pre-coated with an anti-strep mAb (StrepMAB-Immo coated microplates from IBA biotech). Briefly, the 96 wells of StrepMAB-Immo coated microplate were washed three times with 300 μL of the PBS Tween 0.2% (referred as ELISA washing solution). […]

# binder, binding result
data = [
    ("anti-Tyro3 scFv 2709 (scFv, V domains shown, Tested as a single-chain Fv made in E. coli) VH: EVQLVQSGADVKKPGASLTISCQASGYTFTDYWISWVRQKPGKGLEWMGAISRNGSTTYYGPSFQGHVTISADRSTATAYLQWRSLEASDTAMYYCVRSGGLTSGGTIPEYYQHWGPGTLVPVSS VL: SYELTQPPSVSVSPGQTARITCSGDALPKKYAYWYQQKSGQAPVLVIYEDKKRVSGIPERFSGSSSGTMATLTISGAQVEDEADYYCYSLAVDGNYGVFGGGTKLTVL", "binds"),
    ("anti-Tyro3 scFv 2713 (scFv, V domains shown, Tested as a single-chain Fv made in E. coli) VH: EVQLVQSGADVKKPGASLTISCQASGYTFTDYWISWVRQKPGKGLEWMGRISRHGSQTYYGPSFQGHVTISADRSTATAYLQWRSLEASDTAMYYCVRAGGQTSGGTIPEYYQHWGPGTLVTVSS VL: SYELTQPPSVSVSPGQTARITCSGDALPKKYAYWYQQKSGQAPVLVIYEDHKRASGIPERFSGSSSGTMATLTISGAQVEDEADYYCYSISPAGNYGVFGGGTKLTVL", "binds"),
    ("anti-Tyro3 scFv 2410 (scFv, V domains shown, Tested as a single-chain Fv made in E. coli) VH: EVQLVQSGADVKKPGASLTISCQASGYTFTDYWISWVRQKPGKGLEWMGQIVPRASRTNYGPSFQGHVTISADRSTATAYLQWRSLEASDTAMYYCVRPYFQTSGGTIPEYYQHWGPGTLVTVSS VL: SYELTQPPSVSVSPGQTARITCSGDALPKKYAYWYQQKSGQAPVLVIYEDEKRASGIPERFSGSSSGTMATLTISGAQVEDEADYYCYSQERNGNYAVFGGGTKLTVL", "binds"),
]
